# Test Summary: protein stability index of a GFP-peptide fusion (GPS, HEK-293T) (PSI 1-6); higher = more stable;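 note: 24-mer peptide tiles fused after GFP, lentivirally expressed, FACS-sorted into six equal bins by GFP/DsRed ratio, decoded by Illumina sequencing, PSI is the read-weighted mean bin number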
# Details: treatment: MLN4924 1 uM, 8 h; c terminus: a fixed tail appended
This listing pairs sequences with measured protein stability index.
Quantity: protein stability index

INSERT INTO measurements (item_sequence, quantitative_readout) VALUES
  ('VADRWYSEIKNYNFQQPGFTSGTG [GLIPR2]', 2.93),
  ('SDVVGRRSSLLACILLSALGYLLL [MFSD9]', 3.19),
  ('DPKRRMTIAQSLEHSWIKAIRRRN [DAPK3]', 3.91),
  ('RCEMEAQNQEYKMLLDIKTRLEQE [KRT15]', 4.6),
  ('EAQLLQLKVKCLNNLAASQLKLDH [FKBP8]', 2.95),
  ('ETRDWGGAQFEGEKGRALQIRDWR [ZSWIM9]', 3.84),
  ('LLSLNSLLPESGIVADIELENVLD [TFE3]', 3.3);

---

# Test Summary: protein stability index of a GFP-peptide fusion (GPS, HEK-293T) (PSI 1-6); higher = more stable
# Details: treatment: DMSO; c terminus: a fixed tail appended
Quantity: protein stability index

INSERT INTO measurements (item_sequence, quantity, quantitative_readout) VALUES
  ('HPDDRPKLNKPPETLITTIDSSSS [CYB5A]', 'protein stability index', 4.85),
  ('PRRRRPGCYAYRQNPEAIAAAAMY [MYORG]', 'protein stability index', 2.78),
  ('GIDIMKTSFPGRGSIPEFFHIMKR [AASDHPPT]', 'protein stability index', 2.33),
  ('LYSRTGDIVEFVCKSGYHPTKSHS [CFHR2]', 'protein stability index', 2.15),
  ('KKKNTNKQEMGTYLRFIVSRMKER [ZMYND11]', 'protein stability index', 2.47),
  ('GDGLLVGSEKVTMQNLNDRLASYL [KRT16]', 'protein stability index', 2.66),
  ('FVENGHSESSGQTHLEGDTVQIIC [CFHR2]', 'protein stability index', 3.21),
  ('YSKFHGLEMCVDARTFGNEARFIR [KMT2E]', 'protein stability index', 2.21),
  ('ADSGADPKGEPGSKQSPPMASSPI [FBF1]', 'protein stability index', 5.44),
  ('PSHSDNLLHGLNLLWRKQLFCDVT [KLHL14]', 'protein stability index', 1.96),
  ('LSRQEFLGMVGLFGTIISGIQLLI [SLC35F2]', 'protein stability index', 2.28),
  ('HFVDEHGKDQGINIRQKVKELVEF [CLINT1]', 'protein stability index', 3.26),
  ('VWERPARSALWCLGLNAAFWFFAL [RETREG3]', 'protein stability index', 2.62);

---

# Test Summary: protein stability index of a GFP-peptide fusion (GPS, HEK-293T) (PSI 1-6); higher = more stable
# Details: treatment: DMSO; c terminus: a fixed tail appended
Quantity: protein stability index

INSERT INTO results (item_sequence, quantitative_readout) VALUES
  ('SDPSTIEASNFQMDRKTRFIIHGF [PNLIPRP1]', 2.42),
  ('KVPRPDALDNESWGFVHPRLLSVP [RETREG3]', 2.91),
  ('ANPFQAYLDVDLTLTREQTERLSH [RTN2]', 3.65),
  ('HETRLVEVDSGRQIEYEYKLAQAL [LMNB1]', 3.81),
  ('DNSDYDYSALSCTSDASFHPAFLP [KCNG1]', 3.59),
  ('SPSSDLDTDAEGDDFELLDQSELS [RETREG3]', 5.56),
  ('ADDPTSGFSSIPDAFWWAVVTMTT [KCNA3]', 2.94),
  ('QNVARIPEFELLWKDIIHNPQALS [INTS3]', 2.47),
  ('RGGGAAGAGGGGSGAGGGSGGSGG [KLHDC10]', 5.2),
  ('TNSDVLAQQFALMAPLLFNGCRSG [DCAF4]', 2.23),
  ('LSMDEKVELYRIKFKESFAEMNRG [COX4I1]', 2.9),
  ('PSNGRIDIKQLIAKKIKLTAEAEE [SOAT1]', 3.19),
  ('KMELLILETQAQVCQALAQVDGGA [CPOX]', 2.14),
  ('SAKNTSHPGSGTKVQFNLQFTKPN [SASS6]', 3.35),
  ('IAAPHAGANVKPRNSTPPSLARNP [ZC2HC1A]', 4.35),
  ('IYDLNIPAFVKFAYVAEREDELSL [NCK2]', 2.25),
  ('SSLEEIVEKQGDTIEYLKRHNALL [TMEM192]', 3.82),
  ('NASRSLYPDAEDPQLGLDGPGEPD [PSD2]', 5.4),
  ('LPIVAIENILSFMSYDEISQLRLV [FBXO28]', 2.94),
  ('LLSSVHVLDLEARGYIKPHVDSIK [ALKBH7]', 2.97),
  ('GPSAEAYLLHPAAFHGAPSHLPTR [TBX6]', 3.31),
  ('ADQWKSSNKSLVEALGLEAEGAVP [RHOBTB1]', 5.1),
  ('ELCCVAELDNPMQQKWTKPARAGS [C2CD2L]', 3.37),
  ('SDVLTISGTIMKIGIEAKNLASYD [MCOLN1]', 2.39),
  ('QKLNPGFDLAKGNAGKVNLPKELP [PLAGL1]', 4.27),
  ('VQILCHTYWEHWTSQGQVRMRLFG [RTP4]', 2.45),
  ('EQKTGTEAEAADSGAVGARRFLLC [MFSD9]', 4.48),
  ('YQTEQSLRLLVESDINSIRRILDE [KRT34]', 2.85),
  ('DHKRETERVVREALEKLRSEMEEE [ZMYND11]', 4.99),
  ('KVVKGHRPELPPVCRARPRACSHL [RIPK4]', 3.19),
  ('AQEALREKAAALERQLKVMASDHR [LRRC45]', 4.26),
  ('FSSITDSTMSLNIITVTLNMEKYN [DVL3]', 2.93),
  ('HTMEEEEDDDWGEDTTEEAQRRRM [EIF5]', 5.55),
  ('QVFLDRINRADYCPECYPDNPANR [TOR1AIP2]', 2.76),
  ('FKKGKNPTGLLALQQIADFMTTNV [ADD1]', 2),
  ('LGPGALHFDLRDDDDAEEEGPKRE [TCF25]', 5.17),
  ('LNAEAGHLDPGFLASDKTSAGNAP [C18orf25]', 5.07),
  ('LDDIIRHDFFLQGFTPDRLSSSCC [PLK2]', 2.48),
  ('SSKAHTSRFISANLPCNKFKNRLV [PTPRD]', 2.58),
  ('VITIKSESTFKNTEISFILGQEFD [FABP4]', 2.23),
  ('LLSLNSLLPESGIVADIELENVLD [TFE3]', 3.3),
  ('PIMSGQGLAGFFASVAMICAIASG [SLC29A1]', 3.12),
  ('VQTPPGGSEVVPVISPMYQLHKPL [IKZF1]', 3.77),
  ('ERIEARLATLEGDDPSLRKTHSSP [PSD2]', 5.08),
  ('NKLPEGVPQPARMPYISDKHPRQT [KLHL20]', 4.69),
  ('QYEVSNFARNGALSTHNWTYWQCG [RSAD1]', 2.43),
  ('SLVMGSQTESALSKKLRAILPKQS [LCOR]', 2.71),
  ('RGFMEMNGRGELVESLKRFCASTR [AUP1]', 2.54),
  ('RCEMEAQNQEYKMLLDIKTRLEQE [KRT15]', 4.44),
  ('EIVNYEPLGLEADMWSIGVITYIL [DAPK3]', 2.35),
  ('ITLKYPHYFPVMKKCCIPETRRRM [NLN]', 2.1),
  ('SVKIIFKLPNDSRVERRFHFSQSL [FAF2]', 2.72),
  ('LQGSLFGLAGLLPASYTAPIMSGQ [SLC29A1]', 2.44);
